// values below are reported delta
Target: T1, human Dectin-1 (biosensor tests of Tables 3, 4A and 9; construct not stated) (human, UniProt Q9BXN2 66-247, limits assumed);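 further: Single-point dissociation rate (koff) fit for each variant binding domain, expressed as change versus the parental clone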
T1 construct: also called hDectin-1
T1 sequence (looked up): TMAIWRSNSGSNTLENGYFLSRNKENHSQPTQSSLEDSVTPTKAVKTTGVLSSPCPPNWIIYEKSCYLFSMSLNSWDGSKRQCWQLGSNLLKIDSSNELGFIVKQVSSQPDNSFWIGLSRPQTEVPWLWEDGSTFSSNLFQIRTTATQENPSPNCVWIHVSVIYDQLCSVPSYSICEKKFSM
Assay: Octet
Just the number please, in %, no unit attached.

In plain terms, 2M24A.1.17 (Fab, V domains shown, Fab; also called 2M24.1.17) VH: QVQLVQSGAEVKKPGASVKVSCKSSGYTFTDYYIHWVRQAPGQGLEWMGWINPNSGDTNYAQKFQGRITMTRDTSISTAYLELSRLRSDDTAVFYCARNSASYSFGYWGQGTLVTVSS VL: DIQMTQSPSSVSASVGDRVTITCRASQGISSWLAWYQQKPGKAPKLLIFGASSLQSGVPSRFSGSGSGTDFTLTVSSLQPEDFATYYCQQAYSFPFTFGPGTKVDIE has a documented delta of 1

delta in this record for 2M24A.1.14 hFab (Fab, V domains shown, Fab; also called 2M24.1.14) VH: QVQLVQSGAEVKKPGASVKVSCKSSGYTFTDYYIHWVRQAPGQGLEWMGWINPNSGDTNYAQKFQGRITMTRDTSISTAYLELSRLRSDDTAVFYCARNSGSASFGYWGQGTLVTVSS VL: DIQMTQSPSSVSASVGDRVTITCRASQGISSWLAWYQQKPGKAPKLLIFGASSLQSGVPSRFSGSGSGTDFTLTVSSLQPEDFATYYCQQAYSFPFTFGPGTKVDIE : 100

Per the records, this binder ( 2M24A.1.13 hFab (Fab, V domains shown, Fab; also called 2M24.1.13) VH: QVQLVQSGAEVKKPGASVKVSCKSSGYTFTDYYIHWVRQAPGQGLEWMGWINPNSGDTNYAQKFQGRITMTRDTSISTAYLELSRLRSDDTAVFYCARASGSYSFGYWGQGTLVTVSS VL: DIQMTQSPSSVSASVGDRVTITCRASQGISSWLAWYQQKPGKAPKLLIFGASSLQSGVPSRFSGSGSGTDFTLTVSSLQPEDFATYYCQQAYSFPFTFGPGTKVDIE ) has delta equal to 100

Now look at this one.
Briefly, delta measured for 2M24A.1.7 hFab (Fab, V domains shown, Fab; also called 2M24.1.7) VH: QVQLVQSGAEVKKPGASVKVSCKSSGYTFTDYYIHWVRQAPGQGLEWMGWINPNSGATNYAQKFQGRITMTRDTSISTAYLELSRLRSDDTAVFYCARNSGSYSFGYWGQGTLVTVSS VL: DIQMTQSPSSVSASVGDRVTITCRASQGISSWLAWYQQKPGKAPKLLIFGASSLQSGVPSRFSGSGSGTDFTLTVSSLQPEDFATYYCQQAFSFPFTFGPGTKVDIE : 22
